- Test system: Zymoseptoria tritici
- assay_remarks: Leaf blotch of wheat (SEPTTR) disease control on wheat seedlings
- Format: in vivo
- Design: key: A: > 80; B: ≤ 80; C: Not Tested; D: No Activity Observed in the Reported Assay
- measurement_parameters: HV application at 100 ppm; 1 Day Protectant; wheat leaf blotch
endpoint_label: SEPTTR 1DP disease control rating, HV activity

Examples with their reported SEPTTR 1DP disease control rating, HV activity follow.
| compound | reading |
| --- | --- |
| CC[C@@H](CCOC)[C@@H](Oc1ccccc1)[C@H](C)OC(=O)[C@@H](C)NC(=O)c1nccc(OC)c1O | D |
| COc1ccnc(C(=O)N[C@@H](C)C(=O)O[C@@H](C)[C@@H](CC(C)C)Oc2ccccc2)c1O | A (> 80) |
| COc1ccnc(C(=O)NC(C)C(=O)OC(C)C(Oc2cccc(C(F)(F)F)c2)C(C)C)c1O (centres unmarked) | D |
| CCCOC[C@H](C)OC(=O)[C@H](C)NC(=O)c1nccc(OC)c1O | B (≤ 80) |
| CCC(CC)[C@@H](Oc1cc(F)ccc1F)[C@H](C)OC(=O)[C@@H](NC(=O)c1nccc(OC)c1O)C(C)C | D |

Measured SEPTTR 1DP disease control rating, HV activity, CCC(CC)C(Oc1cc(F)ccc1F)C(C)OC(=O)C(CC(C)C)NC(=O)c1nccc(OC)c1O (centres unmarked) : D

Measured SEPTTR 1DP disease control rating, HV activity, CCC(CC)[C@H](Oc1cccc(F)c1)[C@H](C)OC(=O)[C@H](C)NC(=O)c1nccc(OC)c1O : B (≤ 80)

====

- Tested on: Zymoseptoria tritici
- assay_remarks: Leaf blotch of wheat (SEPTTR) disease control on wheat seedlings
- Type: in vivo
- measurement_parameters: high volume application, 100 ppm, 1 day protectant
endpoint_label: SEPTTR 1DP disease control rating, HV activity at 100 ppm

Examples with their reported SEPTTR 1DP disease control rating, HV activity at 100 ppm follow.
| compound | reading |
| --- | --- |
| COc1ccnc(C(=O)N[C@@H](C)C(=O)O[C@@H](C)[C@H](Oc2ccccc2)C2CC2)c1O [Cmpd 1016] | B (≤ 80) |
| COc1ccnc(C(=O)N[C@@H](C)C(=O)O[C@@H](C)[C@H](Oc2ccc(F)cc2)C2CCCC2)c1O [Cmpd 840] | B (≤ 80) |
| COc1ccnc(C(=O)NC(C)C(=O)OC(C)C(Oc2ccccc2)C2CCCCC2)c1O (stereo not shown) [Cmpd 836] | A (> 80) |
| COc1ccnc(C(=O)N[C@@H](C)C(=O)O[C@@H](C)[C@H](OCC2CC2)C2CC2)c1O [Cmpd 1002] | B (≤ 80) |

Measured SEPTTR 1DP disease control rating, HV activity at 100 ppm, COc1ccnc(C(=O)N[C@@H](C)C(=O)O[C@@H](C)[C@H](Oc2cccc(F)c2)C2CCCC2)c1O [Cmpd 839] : B (≤ 80)

Measured SEPTTR 1DP disease control rating, HV activity at 100 ppm, CC[C@H](NC(=O)c1nccc(OC)c1O)C(=O)O[C@@H](C)[C@H](Oc1ccccc1)C(C)C [Cmpd 810] : A (> 80)

Measured SEPTTR 1DP disease control rating, HV activity at 100 ppm, COc1cccc(O[C@H](C2CC2)[C@H](C)OC(=O)[C@H](C)NC(=O)c2nccc(OC)c2O)c1 [Cmpd 1014] : B (≤ 80)
